Ref: patent US20220386594A1

TGT: T1, Helicoverpa armigera V-ATPase subunit c (Helicoverpa armigera)
T1 construct: also called V-ATPases Subunit C; ATPase V subunit c
T1 chain: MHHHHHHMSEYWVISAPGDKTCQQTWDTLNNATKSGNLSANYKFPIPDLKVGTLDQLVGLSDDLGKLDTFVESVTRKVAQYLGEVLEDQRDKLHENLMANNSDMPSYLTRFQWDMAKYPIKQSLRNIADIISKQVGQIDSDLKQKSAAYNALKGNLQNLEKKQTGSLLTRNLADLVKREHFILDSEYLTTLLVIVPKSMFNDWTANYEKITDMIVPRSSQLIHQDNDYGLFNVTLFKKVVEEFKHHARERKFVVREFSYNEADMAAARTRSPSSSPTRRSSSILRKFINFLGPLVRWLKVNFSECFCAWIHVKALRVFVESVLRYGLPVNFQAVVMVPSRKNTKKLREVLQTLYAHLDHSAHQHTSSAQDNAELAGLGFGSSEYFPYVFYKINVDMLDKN
MEASUREMENT_NOTES: ELISA, plate coated with 10 ug/ml target protein, 2 ug/ml nanobody, anti-VHH-HRP, A450

# BINDER, binding result
rows = [
    ("VAT0101E (VHH, Llama nanobody, His-tagged, expressed in E. coli SHuffle T7; also called anti-VAT nanobody VAT0101E) VHH: QVQLQESGGGLVQAGDSLRLSCAASGSTFSGYIMSWFRQPPGKERELVAAITYVGSTYVEDSVKGRFTISRDNAKNTVSLQMNSLKPEDTAVYYCRAREGEQLDFWGQGTQVTVSS", "binds"),
    ("VAT0101F (VHH, Llama nanobody, His-tagged, expressed in E. coli SHuffle T7; also called anti-VAT nanobody VAT0101F) VHH: QVQLQESGGGTVQAGGSLRLSCAASGSTFSGYIMSWFRQPPGKERELVAAITYVGSTYVEDSVKGRFTISRDNAKNTVSLQMNSLKPEDTAVYYCRAREGEQLDFWGQGTQVTVSS", "binds"),
    ("VAT0101B (VHH, Llama nanobody, His-tagged, expressed in E. coli SHuffle T7; also called anti-VAT nanobody VAT0101B) VHH: QVQLQESGGGLVQAGGSLRLSCAASGSTLSGYIMSWFRQPPGKERELVAAITYVGSTYVEDSVKGRFTISRDNAKNTVSLQMNSLKPEDTAVYYCRAREGEQLDFWGQGTQVTVSS", "binds"),
    ("VAT0101D (VHH, Llama nanobody, His-tagged, expressed in E. coli SHuffle T7; also called anti-VAT nanobody VAT0101D) VHH: QVQLQESGGGLVQPGGSLRLSCVASGSTFSGYIMSWFRQPPGKERELVAAITYVGSTYVEDSVKGRFTISRDNAKNTVSLQMNSLKPEDTAVYYCRAREGEQLDFWGQGTQVTVSS", "binds"),
    ("VAT0101G (VHH, Llama nanobody, His-tagged, expressed in E. coli SHuffle T7; also called VATO101G; anti-VAT nanobody VAT0101G) VHH: QVQLQESGGGLVQAGGSLRLSCAASGSTFSGYIMSWFRQPPGKERELVAAITYVGSTWYQDSVKGRFTISRDNAKNTVSLQMNSLKPEDTAVYYCRAREGEQLDFWGQGTQVTVSS", "binds"),
    ("VAT0101C (VHH, Llama nanobody, His-tagged, expressed in E. coli SHuffle T7; also called anti-VAT nanobody VAT0101C) VHH: QVQLQESGGGLVQSGDSLRLSCAASGSTFSGYIMSWFRQPPGKERELVAAITYVGSTYVEDSVKGRFTISRDNAKNTVSLQMNSLKPEDTAVYYCRAREGEQLDFWGQGTQVTVSS", "binds"),
]
